assay: Toxicity liver stage against HepG2, at 10uM; format: cell-based; set-up: test concentration 10 uM, cell line HepG2-A16-CD81EGFP; conditions: human, HepG2-A16-CD81EGFP cells; read-out: INHIBITION
Would you mind telling me the reported cytotoxicity at 10 µM of each entry?
Numbers only, in %.

Please review the following examples before continuing.
| COMPOUND | cytotoxicity at 10 µM, % |
| --- | --- |
| Cc1c(C(=O)NCCC(C)C)nnn1-c1cccc2c1CCN(C)C2 | 1.31 |
| Cn1nc2c(cc1=O)CN(Cc1nc(-c3cccnc3)no1)CC2 | -14.6 |
| Cn1cccc1CNC(=O)N(CCO)C1CCCc2ccccc21 (stereo not drawn) | -7.45 |

Quick one: give me cytotoxicity at 10 µM for each item below, same order please.
1. CCC(CNC(=O)c1cc(OC)ccc1Br)N1CCc2ccccc2C1 (stereo not drawn)
2. COc1ccc2c(c1)C1(CCN(Cc3cnn(C)c3)CC1)N(C)CC2

-6.78
-136
